# Test system: SK-OV-3 ovarian
# MEASUREMENT PROTOCOL: NCI tumour cell line growth inhibition, 48 h
Answer each item with its documented GI50.

For orientation, consider the following solved cases.
# LINE NOTATION, MEASURE, REPORTED
records = [
    ("COc1cc(-c2nn(-c3ccc(NC(=O)Nc4cc(C(F)(F)F)cc(C(F)(F)F)c4)cc3)cc2-c2ccncc2)ccc1Cl", "GI50", "1.55 µM"),
    ("COc1ccc2c(c1)C(=Nc1ccc(F)c(Cl)c1)c1c-2c(Nc2ccc(F)c(Cl)c2)nc2ccccc12", "GI50", "18.8 µM"),
    ("Oc1ccc2c(=S)cc(-c3ccc(Br)cc3)oc2c1O", "GI50", "2.6 µM"),
    ("C=CCn1c2ccccc2c2c3c(c4c5ccccc5n(CC=C)c4c21)C(=O)N(O)C3=O", "GI50", "3.22 µM"),
]

// switching to the query molecule
INPUT: GI50 lookup needed for `COC(=O)[C@]12CC[C@@H](C)[C@H](C)[C@@H]1C1=CC[C@@H]3[C@@]4(C)C(C=O)=C[C@@](C)(CO)[C@@H]4[C@H](O)C[C@@]3(C)[C@]1(C)CC2` , thanks.
OUTPUT: 17 µM
